Overview of reported melting point across a group of compounds:

{"columns": ["compound", "result"],
 "data": [
  ["CN(CCSc1ccc([N+](=O)[O-])cc1)CCc1ccc([N+](=O)[O-])cc1", "56 to 57 °C"],
  ["COCC1CN(c2ccc(OCC3CCCC3=O)cc2)C(=O)O1 (stereo not given)", "70 °C"],
  ["COc1ccc(-c2ccnc3c(C(=O)c4cccs4)cnn23)cc1NC(=O)OC(C)C", "193 to 195 °C"]
]}

# input compound: "C=Cc1c(OC)nc(-c2ccc(Cl)c(OC)c2F)nc1C(=O)OC" ; wanted: its melting point
107 to 108 °C

What about "O=C(O)c1ccc(NCCCCCCCCc2ccccc2)cc1" ?
113 to 115 °C

Item: "N=C(NNC(=O)c1ccccc1O)C(Cl)(Cl)Cl"
168 to 169 °C

====

Measured melting point values are reported for all entries that follow.

{"columns": ["molecule", "result"],
 "data": [
  ["COC(=O)c1cc(-c2ccc(SC)cc2)nn(CC=Cc2ccc(Cl)cc2)c1=O", "123 to 126 °C"],
  ["Cc1ccc(C23CN(C)CC2CC32SCCS2)cc1 (stereo not given)", "81 to 86 °C"],
  ["COC(=O)CN(C1c2cc(Cl)ccc2OC(C)(C)C1O)S(C)(=O)=O (stereo not given)", "148 to 150 °C"],
  ["CC(C)(Cc1c(C(=O)c2ccccc2)c2cc(OCc3ccc4ccccc4n3)ccc2n1Cc1ccc(Cl)cc1)C(=O)O", "165 to 166 °C"]
]}

Please turn your attention to the following entry.
Which melting point reading was recorded for the molecule "O=C1COc2cc(Oc3ccc(O)cc3)ccc2N1" ?
250 to 251 °C

====

Parameter melting point: see the listing below.

Observe how each entry below is paired with its result.
{"columns": ["molecule", "melting point"],
 "data": [
  ["CN1CCN(Cc2ccc(-c3nc4cc([N+](=O)[O-])ccc4o3)s2)CC1", "135 to 137 °C"],
  ["O=C(CCc1ccccc1)Nc1c(O)cc(-c2ccccc2)oc1=O", "191 to 193 °C"],
  ["Cn1cc(C2c3ccc(Cl)cc3C=Cc3sc(N)nc32)c(=O)[nH]c1=O (stereo not given)", "> 240 °C"],
  ["COc1ccc(C2(CCN3CCC(c4nc5ccccc5s4)CC3)CCN(C(=O)c3ccccc3)C2)cc1OC (stereo not given)", "60 to 62 °C"]
]}

Sample CC1(C)CC(=O)C2C(=NC3=C(C(=O)CC(C)(C)C3)C2c2ccc(F)c(C#N)c2)C1 (stereo not given) — what was its melting point?
274 to 275 °C

====

observable: melting point

Before answering, review these 4 worked examples.
{"columns": ["molecule", "melting point"],
 "data": [
  ["Cc1sc(-c2cccs2)cc1Br", "36 to 37 °C"],
  ["C=CCCCCC1CCC(CC)(CC(=O)O)c2[nH]c3c(C)cccc3c21 (stereo not given)", "111 to 112 °C"],
  ["CCOC(=O)c1cnn(-c2ccc(Cl)cc2C(F)(F)F)c1N", "114 to 116 °C"],
  ["Fc1cc(CC2(Cc3ccncc3)c3cccnc3-c3ncccc32)ccn1", "228 to 230 °C"]
]}

Sample "CN(C=C(c1ccccc1)c1ccccc1)C(=O)c1sc2ccc(C(F)(F)F)cc2c1O" — what was its melting point?
147 to 150 °C

====

observable: melting point

Worked examples, 5 compounds total:
{"columns": ["compound", "melting point"],
 "data": [
  ["CC(Oc1ccc(Oc2ccc(C#N)cc2)cc1)C(=O)Nc1ccccc1 (stereo not given)", "133 to 134 °C"],
  ["CC(=O)Nc1cccc(C#Cc2ccc([C@@H]3CC[C@@H]4CCCCN43)cc2)c1 (relative stereo)", "161 to 163 °C"],
  ["c1ccc(C(c2ccccc2)(c2ccccc2)N2CCCC2)cc1", "126 °C"],
  ["ClCCCOc1ccc(-c2ccccc2)cc1", "65 to 66 °C"],
  ["CCN(CC)CCN1C(=O)Nc2ncccc2C1c1ccccc1 (stereo not given)", "160 to 162 °C"]
]}

Quick one: melting point of "CCNC(=O)C(=O)[C@H](Cc1ccccc1)NC(=O)[C@H](CC(C)C)NC(=O)O[C@H]1CCOC1" ?
159 to 161 °C

Now the same for CCCCC1(CCCC)CCc2c(OCc3ccc4ccccc4n3)ccc(C)c2C1O (stereo not given)
149 to 151 °C

Quick one: "O=[PH](O)Cc1cccc(P(c2ccccc2)c2ccccc2)c1"
173 °C

Also check "c1ccc(CN2CCC(Oc3ccccn3)CC2)cc1"
75 °C

Same question for "COC(=O)c1cc(NC=O)ccn1" please.
185 to 186 °C

====

The compounds listed here are annotated with their melting point.

// below: answered compounds
{"columns": ["compound", "result"],
 "data": [
  ["O=C(O)c1cc2c(cn1)[nH]c1ccccc12", "307 to 309 °C"],
  ["O=S1(=O)NCN(C2CC2)c2cc(Br)c(C(F)(F)F)cc21", "186 to 189 °C"],
  ["COC(=O)c1cc(OP(=S)(OC)OC)c(C(=O)OC)s1", "71 °C"],
  ["CCCCOC(=O)N[C@H]1C(=O)N[C@H]1CO (relative stereo)", "128 to 131 °C"],
  ["CN(c1cccc2cc(C(=O)NCC(C)(C#N)SCc3ccccc3)[nH]c12)S(=O)(=O)c1cccs1 (stereo not given)", "181 to 182 °C"]
]}

Look at this compound and give its reported melting point. "CN1CCN(c2nn3ccnc3c3c2CCCC3)CC1"
79.5 °C

Item: "COC(=O)c1sc2cc(OC)ccc2c1C"
118 to 120 °C

"N#CCN1CCC(Nc2nc3ccccc3n2Cc2ccc(CO)o2)CC1" , same question.
210 °C

Now consider "Cc1c(NC(=O)c2ccc(-c3ccc(OC(F)(F)F)cc3)cc2)ccc2cc(CN3CCCC3)cnc12" .
200 to 202 °C

====

observable: melting point

Worked cases, answers included:
{"columns": ["compound", "observable", "result"],
 "data": [
  ["O=C(CC1CCCCC1)Nc1c(Cl)ccc2nc(N3CCC[C@@H](O)C3)ccc12", "melting point", "209 to 214 °C"],
  ["COc1cccc(C(=O)NN=C2CCc3ccccc3C2)c1C", "melting point", "138 °C"],
  ["Cc1ccccc1CC(=NC#N)NC(NC(=O)Cc1cccnc1)C(C)(C)C (configuration not stated)", "melting point", "84 to 86 °C"],
  ["O=Cc1cc(-c2ccc(F)cc2Cl)ccc1OC(F)(F)F", "melting point", "64 °C"],
  ["COc1cnc(N2CCN(c3ccc([N+](=O)[O-])cc3)CC2)nc1", "melting point", "212 °C"]
]}

Entry under review: "CNC(=O)c1cccc(NCC(=O)NCCc2ccc(OC)c(OC)c2)c1" . Reported melting point?
93 to 96.5 °C

Can you handle CC1C(=NCCCN(C)C)c2c([nH]c3ccc(Cl)cc3c2=O)CC1c1ccc(C(F)(F)F)cc1 (configuration not stated) next?
169 to 170 °C

Also, "O=[N+]([O-])c1cn2c(n1)OC[C@@H](OCC#Cc1ccc(Br)cc1)C2" please.
160 to 162 °C

Now try "CCOC(=O)COc1cccc(C(=O)Nc2ccccc2Sc2ccc(-c3nnn[nH]3)cc2)c1" .
88 to 90 °C

Next up: "C=CCOc1cc(N)c(Cl)cc1C(=O)O"
136 to 137 °C

Now the compound "Cc1nn(C)c(S(N)(=O)=O)c1[N+](=O)[O-]"
138 to 140 °C

Same for Cc1ccc(S(=O)(=O)NC(CCCCNC(=O)OCc2ccccc2)C(=O)O)cc1 (configuration not stated)
120 to 121 °C

Same lookup for "CC(C)C(=O)N1CCNC1=Nc1ccc(Cl)cc1Cl" , please.
147 to 148 °C

Try this compound next: COc1ccc(C2(C)C(=O)c3c(N4CCN(C)CC4)cc(Cl)cc3N(Cc3cccc(N)c3)C2=O)cc1 (configuration not stated)
90 to 93 °C

Next compound: "CNc1cc(C(C)=O)ccc1OCCCN1CCC(c2noc3cc(F)ccc23)CC1"
151 to 153 °C

Queued: "COC(=O)Nc1nc2ccccc2n1CCCN1CCN(C(c2ccccc2)c2ccccc2)CC1"
138 °C

What do we get for "CCOc1nc2c(N)nc3cccnc3c2n1[C@@H](C)c1ccccc1" ?
187 to 190 °C

Now the same for CC(C)(C)CCP1C(O)C(O)P(CCC(C)(C)C)C(O)C1O (configuration not stated)
186 to 210 °C

Repeat with O=c1nc(-c2cccc(CS(=O)Cc3ccccc3)n2)sc2ccccc12 (configuration not stated)
187 to 189 °C

For CC1(C)OCC2OC2CO1 (configuration not stated) then?
70 to 74 °C

Repeat with "CN=Cc1cnc(-c2ccccc2Cl)s1"
81 to 83 °C

How about CC(O[Si](C)(C)C(C)(C)C)C1C(=O)NC1C1CCCC(OCCF)C1O (configuration not stated) ?
106 to 110 °C

Same again, this time with "COc1cccc(-c2nc3n(n2)CCc2cc(OC)ccc2-3)c1"
101 to 103 °C

Field entry: "O=C(Cl)c1ccc(Cl)c(OCCn2cnnn2)c1Cl"
69 to 73 °C

Proceed to "CCONC(=O)c1cccc(NC(C)=C2C(=O)OC(=O)C(C(C)=O)=C2O)c1"
162 to 164 °C

Ok, now "C[C@H]1C[C@H](O)CN1c1ccc(C#N)c2ccccc12"
149 to 151 °C

How about "CC(=O)N1c2ccccc2Sc2ccccc21" ?
210 to 211 °C

What about "CCSc1c(C=NOC)c(=O)n(C)c(=O)n1C" ?
74 to 75 °C

One more compound: "COc1cc(NC(=O)CCCCCN2CCN(c3ccc(Cl)c(Cl)c3)CC2)c2nccc(C)c2c1"
99 to 100 °C

Repeat for the following compound: "COC(=O)c1cc(-c2ccc(=O)n(C(C)C)n2)c(-c2ccccc2)nc1OCC(N)=O"
183 to 184 °C
